Data origin: patent US20120020988A1

# study.system: T1, Recombinant human TSLPR-Fc (human, UniProt Q9HC73 23-231)
# T1 construct: also called recombinant human soluble TSLPR-Fc fusion protein; not shown: Fc part
# T1 sequence: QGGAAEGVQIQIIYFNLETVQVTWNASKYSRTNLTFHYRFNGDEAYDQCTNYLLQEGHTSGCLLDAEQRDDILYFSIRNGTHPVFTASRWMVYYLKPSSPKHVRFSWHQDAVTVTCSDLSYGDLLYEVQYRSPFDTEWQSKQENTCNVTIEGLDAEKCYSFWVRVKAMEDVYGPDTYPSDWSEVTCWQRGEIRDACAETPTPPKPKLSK
# method.notes: blocking ELISA: antibody on coated TSLPR-Fc, then TSLP + IL7Rα-Fc; TSLP binding detected
What IC50 was measured for each of the following?
Report the value in µg/mL with no unit label.

The binder listed as TSLPR-012_141, CDR grafted (antibody, V domains shown, Humanized (CDR grafted) variant of hamster TSLPR-012; human kappa and human IgG1 or IgG4(S228P,L235E) appear only as embodiments) VH: QVQLVESGGGLVKPGGSLRLSCAASGFSITTSGYYWTWIRQFPGKGLEWMGYIGYNSKTYYNPALKSRITISRDNAKNSLYLQMNSLRAEDTAVYYCARSLYGGYKDAFDSWGQGTLVTVSS VL: DIQMTQSPSSLSASVGDRVTITCRASQSIGTSLHWYQQKPGKAPKLLIKFASRLQSGVPSRFSGSGSGTDFTLTISSLQPEDFATYYCQQSPGFPPTFGQGTKLEIKR shows IC50 equal to 0.0104

The binder listed as TSLPR-012_189, CDR grafted (antibody, V domains shown, Humanized (CDR grafted) variant of hamster TSLPR-012; human kappa and human IgG1 or IgG4(S228P,L235E) appear only as embodiments) VH: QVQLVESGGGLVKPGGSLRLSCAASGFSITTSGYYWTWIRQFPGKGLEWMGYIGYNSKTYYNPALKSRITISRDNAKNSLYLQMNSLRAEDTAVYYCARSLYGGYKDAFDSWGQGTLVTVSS VL: EIVMTQSPATLSVSPGERATLSCRASQSIGTSLHWYQQKPGQAPRLLIKFASRSITGIPARFSGSGSGTEFTLTISSLQSEDFAVYYCQQSPGFPPTFGQGTKLEIKR shows IC50 equal to 0.0136

The binder listed as TSLPR-012_75, CDR grafted (antibody, V domains shown, Humanized (CDR grafted) variant of hamster TSLPR-012; human kappa and human IgG1 or IgG4(S228P,L235E) appear only as embodiments) VH: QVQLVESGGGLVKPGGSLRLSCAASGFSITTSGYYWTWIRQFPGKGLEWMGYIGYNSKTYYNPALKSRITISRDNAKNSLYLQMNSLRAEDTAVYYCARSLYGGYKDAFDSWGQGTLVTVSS VL: EIVLTQSPDFQSVTPKEKVTITCRASQSIGTSLHWYQQKPDQSPKLLIKFASRSISGVPSRFSGSGSGTDFTLTINSLEAEDAATYYCQQSPGFPPTFGQGTKLEIKR shows IC50 equal to 0.0134
